- testSummary: NCI Yeast Anticancer Drug Screen. Data for the mlh1 rad18 strain (AID 175)
- measurementSetup: S. cerevisiae mlh1 rad18 strain growth inhibition; at 50.0 µM (retest, dose inferred, filed as 5.0)
This is part of a sample that, as a whole, favours compounds with a hit. Of some 79,000 tested, about 15% had one in any assay. The source made the active and inactive calls. No stated cut-off is given here; in the data, active means growth inhibition above about 70%; inactive means the rest.
Respond only with the outcome that fits, drawn from Y = active, N = inactive

Use the examples below as a reference point.
Request: Can you look up the reported call for COC(OC)(c1ccccc1)C(Br)Br for me?
Response: N

Request: What do you get for CNC(=O)N(C1=NCC(C)S1)c1ccc(C)c(C)c1 (centres undefined) ?
Response: Y

Request: What do you get for Nc1ccc2c(SCc3ccc([N+](=O)[O-])cc3)c3ccccc3nc2c1 ?
Response: Y

Request: What do you get for O=C1C(=O)c2cc(Br)cc([N+](=O)[O-])c2-c2ccc(Br)cc21 ?
Response: Y

Request: What do you get for O=C(c1ccccc1)c1ccc2c(c1)CCCC2 ?
Response: N

New cases:
Request: Can you look up the reported call for Oc1ccc(/C=N/NC(=S)NC2CC3CC2C2C=CCC32)c(O)c1 (centres undefined) for me?
Response: Y

Request: What do you get for O=c1c2cnccc2cc2c3ccccc3ccn12 ?
Response: Y

Request: What do you get for O=C(O)c1ccc(C(O)(c2ccccc2)c2ccccc2)cc1 ?
Response: Y

Request: What do you get for FC(F)(F)c1cccc(N2CCN(c3c4c(nc5ccccc35)CCCCC4)CC2)c1 ?
Response: Y

Request: What do you get for CCCCCC(=O)NNc1ccccc1 ?
Response: Y

----------
- testSummary: NCI Yeast Anticancer Drug Screen. Data for the rad50 strain (AID 155);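 further: 0% = growth of vehicle-only cultures of the same strain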
- measurementSetup: S. cerevisiae rad50 strain growth inhibition; at 5.0 µM (retest, dose inferred, filed as 0.5); hits give high values
Compounds without any hit were thinned out: in the full panel of roughly 79,000, 15% have a hit.
// Not fulfilled strictly below 10% in growth inhibition; Fulfilled otherwise

Request: Does CCCCN=C(c1ccc(O)cc1)c1ccc(OC)cc1O have a reported growth inhibition of at least 10%?
Response: Not fulfilled

New cases:
Request: Does COc1ccc(C(c2ccc(OC)c(OC)c2)C(Cl)(Cl)Cl)cc1OC have a reported growth inhibition of at least 10%?
Response: Not fulfilled

Request: What do you get for Cc1cc(Cl)n2c(nc3ccccc32)c1C#N ?
Response: Fulfilled

Request: What do you get for CCc1cc(C)cc(NC(=O)OC2CCCCC2C)c1 (stereo not drawn) ?
Response: Fulfilled

Request: What do you get for Cc1ccc(O)c(-c2cscn2)c1 ?
Response: Fulfilled

Request: What do you get for CCOc1c(N=Nc2ccccc2Cl)c(C)nn1C(=S)S ?
Response: Not fulfilled

----------
- testSummary: NCI Yeast Anticancer Drug Screen. Data for the mlh1 rad18 strain (AID 175)
- measurementSetup: S. cerevisiae mlh1 rad18 strain growth inhibition; at 5.0 µM (retest, dose inferred, filed as 0.5); hits give high values
Compounds without any hit were thinned out: in the full panel of roughly 79,000, 15% have a hit.
outcomeMeasure: growth inhibition (%)
Give bare numbers, in %.

See these solved cases before continuing.
Request: // returns reported growth inhibition for input COc1cc2c(oc(=O)c3cc(C)cc(OC)c32)c2c(C3OC(C)C(O)C(C)(O)C3O)ccc(O)c12 (stereo not drawn)
Response: 90

Request: What do you get for Cc1cccc(NC(=O)CCc2ccc(Cl)cc2)n1 ?
Response: 8

Request: What do you get for Cc1ccc(S(=O)(=O)N/N=C2/CC[C@H](C(C)(C)C)C[C@@H]2C)cc1 ?
Response: -1

Request: What do you get for O=[N+]([O-])/C=C\c1csc2ccccc12 ?
Response: 92

Request: What do you get for O=C(O)c1nnsc1-c1ccc(-c2snnc2C(=O)O)cc1 ?
Response: 7

Parameters: items (list). Returns: growth inhibition for each item.
1. COc1ccc(C2=C(Cl)C(=O)N(c3ccc(O)cc3)C(=O)C2(Cl)Cl)cc1
2. O=C1C(Cl)C(c2cc(Br)cc(Br)c2O)N1n1cnc2ccccc2c1=O (stereo not drawn)

Response:
[15, 20]

Parameters: items (list). Returns: growth inhibition for each item.
1. CC(=O)N(C)C1=C(Sc2ccc(C)cc2)C(=O)c2ccccc2C1=O
2. COC(=O)c1cccc2cccc(C(=O)Nc3ccc(C)cc3C)c12
3. COc1cc2c(c(O)c1OC)-c1c(cc(OC)c(OC)c1OC)CC(C)C(C)C2 (stereo not drawn)
4. CC(c1ccccc1C(=O)O)c1cccc2ccccc12 (stereo not drawn)
5. CC(C)C[NH-].CC(C)C[NH-].[Cl][Pt+2]([Cl])([Cl])[Cl]

Response:
1: 95; 2: 90; 3: 6; 4: -12; 5: 66

Request: // returns reported growth inhibition for input O=C1CSC2(CCN(CCCN3c4ccccc4Sc4ccc(Cl)cc43)CC2)N1
Response: -17

----------
- testSummary: NCI Yeast Anticancer Drug Screen. Data for the mec2-1 strain (AID 157)
- measurementSetup: S. cerevisiae mec2-1 strain, at 50.0 µM (retest, dose inferred, filed as 5.0), hits give high values
Compounds without any hit were thinned out: in the full panel of roughly 79,000, 15% have a hit.
outcomeMeasure: growth inhibition (%)
Give bare numbers, in %.

Request: // returns reported growth inhibition for input CN(C)C1CCC2C3CC=C4CC(OC=O)CCC4(C)C3CCC21C (centres undefined)
Response: 42

Parameters: items (list). Returns: growth inhibition for each item.
1. COC(=O)c1ccc2c(c1)C(O)NC(=O)O2 (centres undefined)
2. Nc1cc(Br)cc2c1[nH]c1ccc(Br)cc12
3. O=[N+]([O-])/C=C\c1csc2ccccc12

Response:
1: 97; 2: 98; 3: 98

----------
- testSummary: NCI Yeast Anticancer Drug Screen. Data for the bub3 strain (AID 167)
- measurementSetup: S. cerevisiae bub3 mutant strain, at 5.0 µM (retest, dose inferred, filed as 0.5)
About 79,000 compounds went through this panel and 15% of them were active in at least one assay; those are over-represented in the sample as a whole. Activity calls are given as the source filed them. No stated cut-off is given here; in the data, active means growth inhibition above about 70%; inactive means the rest.
Respond only with the outcome that fits, drawn from 1 (active), -1 (inactive)

Use the examples below as a reference point.
Request: Can you look up the reported call for Cc1ccc(C(=O)C(F)(F)F)cc1 for me?
Response: -1

Request: What do you get for O=C(NCCCl)N1CCC(CN=c2cc3n(-c4ccc(Cl)cc4)c4ccccc4nc-3cc2Nc2ccc(Cl)cc2)CC1 ?
Response: -1

Request: What do you get for COc1cc(CNC(=O)CCCCCCCC/C=C/Br)ccc1O ?
Response: -1

Request: What do you get for O=C1/C(=C/c2ccccc2[N+](=O)[O-])COc2ccccc21 ?
Response: -1

Request: What do you get for N=Nc1c(OC(=O)Nc2cccc(Cl)c2)[nH]c2ccccc12 ?
Response: -1

New cases:
Request: Can you look up the reported call for O=C1/C(=C/c2ccc(Cl)cc2)CCC/C1=C\c1ccc(O)c(CN2CCCCC2)c1 for me?
Response: -1

Request: What do you get for N#CC(C#N)=C1C(Br)=CCc2ccccc21 ?
Response: 1

Request: What do you get for CCCCCCCCN(CCCCCCCC)CC(O)c1ccc2cc3c(nc2c1)CCCC3 (centres undefined) ?
Response: -1

Request: What do you get for CC(=O)OC1=CC2=CCC3C(CCC4(C)C(C(C)=O)CCC34)C2(C)CC1 (centres undefined) ?
Response: -1

----------
- testSummary: NCI Yeast Anticancer Drug Screen. Data for the rad50 strain (AID 155);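 further: 0% = growth of vehicle-only cultures of the same strain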
- measurementSetup: S. cerevisiae rad50 strain growth inhibition; at 5.0 µM (retest, dose inferred, filed as 0.5)
About 79,000 compounds went through this panel and 15% of them were active in at least one assay; those are over-represented in the sample as a whole. The source made the active and inactive calls. No stated cut-off is given here; in the data, active means growth inhibition above about 70%; inactive means the rest.
Respond only with the outcome that fits, drawn from true (active), false (inactive)

Use the examples below as a reference point.
Request: Can you look up the reported call for N/N=C(/N)SCCCCCCCCCCS/C(N)=N/N for me?
Response: false

Request: What do you get for CCN1CCC(O)(/C=C/c2cccc(C)c2)C(C(=O)/C=C/c2cccc(C)c2)C1 (stereo unspecified) ?
Response: false

Request: What do you get for CN(Cc1cc(Cl)cc(Cl)c1O)Cc1c(O)ccc2ccccc12 ?
Response: false

Request: What do you get for Nc1ccc2c(c1)[nH]c(=O)c1cc(Cl)c(Cl)cc12 ?
Response: true

Request: What do you get for C=CC(=O)NC(C)C ?
Response: false

New cases:
Request: Can you look up the reported call for COc1cc(N=Nc2ccccc2)cc(/C=N/NC(N)=S)c1O for me?
Response: false

Request: What do you get for O=C1OCCN1/N=C/c1ccc([N+](=O)[O-])o1 ?
Response: false

Request: What do you get for Fc1ccc(NC(=S)SCc2ccc(Cl)c(Cl)c2)cc1 ?
Response: false

Request: What do you get for O=c1[nH]c(CN2CCCCC2)nn1-c1ccccc1 ?
Response: false

Request: What do you get for CC(C)OCc1cccc2ccnc(COC(C)C)c12 ?
Response: false

Request: What do you get for Cc1cc(Cl)ccc1C(=O)c1ccc2ccccc2c1C(=O)O ?
Response: false
